study_system: GST-MKK7 (full-length human MKK7 fused to an N-terminal GST tag) (human) (UniProt O14733)
test_summary: ELISA Gadd45β/MKK7 competition (summary sentence on FIGS. 4 to 8)
reported_metric: IC50

Request: GET /values?readout=IC50&system=GST-MKK7 (full-length human MKK7 fused to an N-terminal GST tag) (human) (UniProt O14733)&item= DTP3 (Acetyl-Tyr-Arg-Phe-NH2, all residues in the D configuration) (peptide)
Result: < 1 nM

====

System: KMS-12 cells
test_summary: [3H]thymidine incorporation assay, DTP3 and bortezomib as single agents or in combination, KMS-12
run_conditions: Homo sapiens, 48 h, read-out: IC50 value as single agent
reported_metric: IC50 (nM)
Give bare numbers, in nM.

Request: Returns the measured IC50 for the input compound. Input: CC(C)C[C@H](NC(=O)[C@H](Cc1ccccc1)NC(=O)c1cnccn1)B(O)O [bortezomib, reference compound]
Result: 6
